# assayedTarget: Zap1 (UniProt P47043)
# Sequence: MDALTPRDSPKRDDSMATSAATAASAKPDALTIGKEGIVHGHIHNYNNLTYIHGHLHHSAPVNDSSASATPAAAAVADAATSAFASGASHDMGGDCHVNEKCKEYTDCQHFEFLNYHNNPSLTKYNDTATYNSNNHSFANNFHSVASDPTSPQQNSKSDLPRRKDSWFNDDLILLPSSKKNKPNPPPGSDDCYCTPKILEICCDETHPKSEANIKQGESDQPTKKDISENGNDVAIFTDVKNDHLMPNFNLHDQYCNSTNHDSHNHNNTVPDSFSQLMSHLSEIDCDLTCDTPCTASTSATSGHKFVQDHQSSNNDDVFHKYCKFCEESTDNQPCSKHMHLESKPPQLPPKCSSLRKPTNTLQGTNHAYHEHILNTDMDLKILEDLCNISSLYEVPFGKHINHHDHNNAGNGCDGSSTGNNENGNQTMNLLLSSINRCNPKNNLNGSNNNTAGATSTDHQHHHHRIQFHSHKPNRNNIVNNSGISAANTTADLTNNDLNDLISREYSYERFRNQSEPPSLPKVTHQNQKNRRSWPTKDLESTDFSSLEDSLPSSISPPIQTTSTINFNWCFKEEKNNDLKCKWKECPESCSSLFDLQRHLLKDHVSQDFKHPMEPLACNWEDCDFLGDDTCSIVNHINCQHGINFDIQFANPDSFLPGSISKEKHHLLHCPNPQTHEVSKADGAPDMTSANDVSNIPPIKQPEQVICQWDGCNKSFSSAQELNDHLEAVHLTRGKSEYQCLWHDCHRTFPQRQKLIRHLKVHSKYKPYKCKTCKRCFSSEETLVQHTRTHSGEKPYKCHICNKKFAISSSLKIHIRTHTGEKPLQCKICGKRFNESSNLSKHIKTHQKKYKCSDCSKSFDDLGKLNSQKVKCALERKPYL
# methodNotes: PBM E-score (8-mer binding enrichment) (E-score (-0.5 to 0.5)); higher = stronger / more preferred TF binding
# setupConditions: protein concentration: 200 nM; construct: GST-full length
Over roughly 33,000 sequences, “E-score (-0.5 to 0.5)” has its median near -0.021; the highest 2% begin near 0.32. The sample holds the highest values, similar sequences and a random draw of the others, so the mix is not that of the screen.
measuredProperty: PBM E-score

1. AACGCATT
0.0284
2. ATACCTCC
-0.0021
3. ATACCTCA
0.223
4. GCTCTTGA
-0.213
5. ATCTAGGA
-0.0827
6. CGTCACGA
-0.0348
7. CAGGTGTC
-0.0194
8. GGATACAA
0.0969
9. ATACCTCG
0.338
10. AGCGCACT
-0.293
11. CAGCCCAA
-0.0128
12. CAAGGAGC
-0.24
13. AACAGTCT
-0.14
14. TGTGAACA
-0.0338
15. CAGTAGGA
-0.247
16. CGCCTACG
-0.23
17. ATCTTATG
-0.00019
18. GTAAAAGA
0.0206
19. CCCCTTCA
-0.105
20. AGTCGCGA
0.113
21. GGTCGCGA
0.32
22. CGCTCACG
-0.0384

###

# assayedTarget: Zap1 (UniProt P47043)
# Sequence: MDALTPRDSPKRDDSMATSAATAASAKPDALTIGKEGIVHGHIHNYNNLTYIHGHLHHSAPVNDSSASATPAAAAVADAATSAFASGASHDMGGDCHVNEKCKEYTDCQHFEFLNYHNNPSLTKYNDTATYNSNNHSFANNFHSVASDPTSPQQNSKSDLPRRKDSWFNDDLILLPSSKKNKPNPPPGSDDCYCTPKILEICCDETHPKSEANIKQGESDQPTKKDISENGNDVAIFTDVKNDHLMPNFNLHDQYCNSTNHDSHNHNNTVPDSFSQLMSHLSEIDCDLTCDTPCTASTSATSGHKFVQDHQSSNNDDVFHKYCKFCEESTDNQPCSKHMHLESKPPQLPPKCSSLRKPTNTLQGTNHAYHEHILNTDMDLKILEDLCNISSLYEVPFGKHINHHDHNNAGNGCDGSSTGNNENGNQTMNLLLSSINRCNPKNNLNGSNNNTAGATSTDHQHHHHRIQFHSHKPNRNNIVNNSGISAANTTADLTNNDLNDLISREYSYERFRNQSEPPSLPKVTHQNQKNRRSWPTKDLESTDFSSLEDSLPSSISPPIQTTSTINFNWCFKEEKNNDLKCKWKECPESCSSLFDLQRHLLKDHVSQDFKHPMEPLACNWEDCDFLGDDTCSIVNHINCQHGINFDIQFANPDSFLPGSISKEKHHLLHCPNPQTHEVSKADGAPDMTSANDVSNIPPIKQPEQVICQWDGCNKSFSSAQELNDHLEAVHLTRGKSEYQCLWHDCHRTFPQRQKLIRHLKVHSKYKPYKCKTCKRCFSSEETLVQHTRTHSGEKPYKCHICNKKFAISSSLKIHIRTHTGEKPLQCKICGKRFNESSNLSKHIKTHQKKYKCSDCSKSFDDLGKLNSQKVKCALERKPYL
# methodNotes: PBM E-score (8-mer binding enrichment) (E-score (-0.5 to 0.5)); higher = stronger / more preferred TF binding
# setupConditions: protein concentration: 200 nM; construct: GST-full length
In all, about 33,000 sequences were measured (“E-score (-0.5 to 0.5)”: median about -0.021, highest 2% from about 0.32 on). The full list was thinned out, with the highest values kept by preference.
measuredProperty: PBM E-score

1) CGTAGTTA
0.177
2) ACGTTGAG
-0.0801
3) AGGGGTAG
0.312
4) CCCTACGC
-0.17
5) AAGGGCGC
0.0237
6) ACGTAACT
0.0456
7) ACATCCAA
-0.00617
8) CATGGGAG
0.0124
9) AAAAACTT
0.0552
10) GAGCGCCA
-0.291
11) GAACCCCA
0.291
12) AAGGTATC
0.255
13) AGCGGTTC
0.164
14) CTGTGGAA
-0.0936
15) AAACCCCA
0.261
16) GCGTAACC
0.446
17) CGCGGTTC
0.181
18) AGATGGAT
-0.254
19) AGGGGTAC
0.398
20) ATAGAAGC
-0.0622
21) ACCCTTTC
0.298
22) AACCTAAT
0.204
23) ACCGCAAA
0.205
24) ACCGCACT
0.109
25) GAGGTACA
0.155
26) ACCCTTTG
0.345
27) GGACAGCC
-0.0735
28) CCGTAACC
0.471
29) GGCGGTCA
0.12
30) CCGGGTAA
0.246
31) CGGGCCAC
0.125
32) CAGGGTAA
0.354
33) AACGCTTC
-0.128
34) CTAACCCC
0.178
35) CAGGTACG
0.0402
36) TAAACCGA
-0.0627
37) ACGTAACG
-0.248
38) ATAACCCA
0.472
39) CGGAATCA
-0.0619
40) CCGTGACC
0.376
41) AAACCACA
0.184
42) ACCCTTTA
0.415
43) GCGTGACC
0.326
44) CAGGTTGG
0.0671
45) CAGTTAAG
0.0515
46) ACCGCAAC
0.341
47) CTGGGTAA
0.185
48) CTTAGAGC
0.0313
49) ACTGCTAG
-0.269
50) GTAACCCA
0.468
51) ATAACCCG
0.442
52) ACGGGTAG
0.255
53) GCTTTGCC
-0.379
54) CAGGTACA
0.101
55) CCGTGACG
-0.0247
56) TAACCACA
0.417
57) GTCCCAAA
0.0529
58) CCGTAACG
0.0821
59) TAACCCCA
0.424
60) ACCTCAAG
0.251
61) GCGTGACA
-0.136
62) CCAGGGGA
-0.0512
63) AAGGTTGC
0.343
64) CCGGGTAC
0.348
65) GGCGGTTA
0.324
66) AAGGGTAG
0.375
67) CTTAGACC
-0.0476
68) GAGGTACC
0.432
69) CGTAATCA
0.196
70) ACCTCTAT
0.293
71) CTCTACGA
-0.0991
72) AAGGTACT
0.33
73) CCGTAACA
0.0988
74) AAAACCCA
0.258
75) AAGGTAGC
0.307
76) CGCGGTGA
0.144
77) GAAACCCA
0.246
78) CTCCGAAC
-0.196
79) CACGCTAG
-0.21
80) CAGGTTGC
0.0972
81) CCGTGACA
-0.136
82) CACTAGCA
-0.00655
83) GCGGGCGA
-0.105
84) ACCTCTAC
0.259
85) TGAACCCA
0.242
86) ACCTCTCT
0.0304
87) CGCGGTTA
0.452
88) AGTAGTTA
0.11
89) GGGGGTAC
0.186
90) GAGTGCAA
0.0286
91) GGCCCTAC
0.0088
